test system: codon optimized Vif SLQ144-146AAA MAPPIT prey (pMG2-VifoptSLQ), P12504
assay: MAPPIT
particulars: chain shown with the change
Consider the following binders and their measured percent of parent readings.

>  <binder>
Apobec3G-GFP MAPPIT bait (pCEL-Apobec3G-GFP), Q9HC16 W175R (protein) MKPHFRNTVERMYRDTFSYNFYNRPILSRRNTVWLCYEVKTKGPSRPPLDAKIFRGQVYSELKYHPEMRFFHWFSKWRKLHRDQEYEVTWYISWSPCTKCTRDMATFLAEDPKVTLTIFVARLYYFWDPDYQEALRSLCQKRDGPRATMKIMNYDEFQHCWSKFVYSQRELFEPRNNLPKYYILLHIMLGEILRHSMDPPTFTFNFNNEPWVRGRHETYLCYEVERMHNDTWVLLNQRRGFLCNQAPHKHGFLEGRHAELCFLDVIPFWKLDLDQDYRVTCFTSWSPCFSCAQEMAKFISKNKHVSLCIFTARIYDDQGRCQEGLRTLAEAGAKISIMTYSEFKHCWDTFVDHQGCPFQPWDGLDEHSQDLSGRLRAILQNQEN

>  <percent of parent>
20 % of WT

$$$$

Consider the record given below.
QUERY: Read the entry Apobec3G-GFP MAPPIT bait (pCEL-Apobec3G-GFP), Q9HC16 D130Y (protein) MKPHFRNTVERMYRDTFSYNFYNRPILSRRNTVWLCYEVKTKGPSRPPLDAKIFRGQVYSELKYHPEMRFFHWFSKWRKLHRDQEYEVTWYISWSPCTKCTRDMATFLAEDPKVTLTIFVARLYYFWDPYYQEALRSLCQKRDGPRATMKIMNYDEFQHCWSKFVYSQRELFEPWNNLPKYYILLHIMLGEILRHSMDPPTFTFNFNNEPWVRGRHETYLCYEVERMHNDTWVLLNQRRGFLCNQAPHKHGFLEGRHAELCFLDVIPFWKLDLDQDYRVTCFTSWSPCFSCAQEMAKFISKNKHVSLCIFTARIYDDQGRCQEGLRTLAEAGAKISIMTYSEFKHCWDTFVDHQGCPFQPWDGLDEHSQDLSGRLRAILQNQEN and write its reported percent of parent.
RESULT: 43 % of WT

Origin of measurements: paper PMC3438196
